Test system: RPMI 8402 cells
assaySummary: MTT cytotoxicity assay, RPMI 8402
Assay type: cell-based, human
settings: continuous exposure for four days, means of at least two determinations ± standard deviation
endpointLabel: pIC50
Friendly reminder that pIC50 comes from taking -log10 of the concentration in mol/L.

Entry CN(C)CCc1oc2nc1C(=O)NCc1cccc(c1)CNC(=O)c1nc(oc1CCN(C)C)-c1coc(n1)-c1cccc(n1)-c1nc-2co1 [Compound 37] : pIC50 on RPMI 8402 cells = 5.82

Field pIC50 (system: RPMI 8402 cells) for entry CN(C)CCc1oc2nc1C(=O)NCc1cccc(c1)CNC(=O)c1coc(n1)-c1coc(n1)-c1cccc(n1)-c1nc-2co1 [Compound 36] = 6.55

Item CN(C)CCCc1cc2cc(c1)CNC(=O)c1coc(n1)-c1coc(n1)-c1cccc(n1)-c1nc(co1)-c1nc(co1)C(=O)NC2 [Compound 22] ; assay system RPMI 8402 cells; pIC50 reported as 6.30

Summary: CN(C)c1cc2cc(c1)CNC(=O)c1coc(n1)-c1coc(n1)-c1cccc(n1)-c1nc(co1)-c1nc(co1)C(=O)NC2 [Compound 19] , RPMI 8402 cells, pIC50 = 7.22

pIC50 for RPMI 8402 cells with input CC(C)[C@@H]1NC(=O)c2coc(n2)-c2coc(n2)-c2coc(n2)[C@H](C(C)C)NC(=O)c2coc(n2)-c2coc(n2)-c2coc1n2 [HXDV, reference compound] equals 6.27

====

System: Salmon testes (ST) duplex DNA
assaySummary: UV melting of salmon testes duplex DNA
Assay type: binding
settings: change in Ttran induced by compound; UV melting at 260 nm; ST DNA 15 µM base pair, drug 15 µM; pH 7.5, K+ 150 mM; uncertainty ± 0.5 °C
Assignment: determine reported ΔTtran, salmon testes duplex DNA for the given molecules.
Kindly answer with a numeric value in °C, unit omitted.

The value of ΔTtran, salmon testes duplex DNA measured for the molecule CN(C)Cc1cc2cc(c1)CNC(=O)c1coc(n1)-c1coc(n1)-c1cccc(n1)-c1nc(co1)-c1nc(co1)C(=O)NC2 [Compound 20] turned out to be −0.4

Looking up CN(C)c1cc2cc(c1)CNC(=O)c1coc(n1)-c1coc(n1)-c1cccc(n1)-c1nc(co1)-c1nc(co1)C(=O)NC2 [Compound 19] , I found its ΔTtran, salmon testes duplex DNA recorded as −0.5

Documented ΔTtran, salmon testes duplex DNA of CN(C)CCCc1ccc2cc1CNC(=O)c1coc(n1)-c1coc(n1)-c1cccc(n1)-c1nc(co1)-c1nc(co1)C(=O)NC2 [Compound 12] : −0.4

Recorded result, CN(C)CCc1oc2nc1C(=O)NCc1cccc(c1)CNC(=O)c1nc(oc1CCN(C)C)-c1coc(n1)-c1cccc(n1)-c1nc-2co1 [Compound 37] , ΔTtran, salmon testes duplex DNA: −0.4

Notebook: CN(C)CCc1ccc2cc1CNC(=O)c1coc(n1)-c1coc(n1)-c1cccc(n1)-c1nc(co1)-c1nc(co1)C(=O)NC2 [Compound 11] , ΔTtran, salmon testes duplex DNA read as −0.4

Just so you know, measured ΔTtran, salmon testes duplex DNA for CN(C)CCc1oc2nc1C(=O)NCc1cccc(c1)CNC(=O)c1coc(n1)-c1coc(n1)-c1cccc(n1)-c1nc-2co1 [Compound 36] came out at −0.4

Summary for this molecule, CN(C)CCCc1cc2cc(c1)CNC(=O)c1coc(n1)-c1coc(n1)-c1cccc(n1)-c1nc(co1)-c1nc(co1)C(=O)NC2 [Compound 22] : ΔTtran, salmon testes duplex DNA is −0.4

Sample CN(C)c1ccc2cc1CNC(=O)c1coc(n1)-c1coc(n1)-c1cccc(n1)-c1nc(co1)-c1nc(co1)C(=O)NC2 [Compound 8] ; ΔTtran, salmon testes duplex DNA observed: −0.9

Numbers sourced from paper PMC3949622.
